# Test System: NAD-dependent protein deacetylase sirtuin-2 (Homo sapiens)
# Run Description: Inhibition of SIRT2 at 200 uM
Result Type: inhibition (%)

Example entries and their recorded answers appear below.
* O=C(/C=C/c1ccc(OCc2ccccc2)cc1)NC1(C(=O)NCCc2c[nH]c3ccccc23)CCNCC1 | 79.1
* O=C(/C=C/c1ccc(O)cc1)NCC(=O)NCCc1c[nH]c2ccccc12 | 44.3

P = COc1ccc(/C=C/C(=O)NC(C)(C)C(=O)NCCc2c[nH]c3ccccc23)cc1
Q = CC(C)(NC(=O)/C=C/c1ccc(OCc2ccccc2)cc1)C(=O)NCCc1c[nH]c2ccccc12
## Input Lower inhibition: P or Q ? State the label of the item chosen.
## Output Q

// provenance: ChEMBL document CHEMBL1144627
